biological target: recombinant rat PIM-3 (Rattus norvegicus, UniProt O70444); experiment: PIM-3 Assay (as Example A); settings: averaged IC50; 30 μM ATP, 3.75 μM PIM2tide, 0.5 nM PIM-3
pIC50: −log10 of the molar value. Counter-ions that a name gives are not always drawn.
A collection of compounds and their measured pIC50
measureName: pIC50

{"compound": "N[C@H]1CCN([C@H](c2ccc3nnc(-c4ccc5ccc(C6CC6)c(F)c5n4)n3c2)C(F)(F)F)C1 [Example 172, dihydrochloride]", "resultValue": 8.00}
{"compound": "COCCOc1ccc2ccc(-c3nnc4ccc([C@H](N5CC[C@](C)(N)C5)C(F)(F)F)cn34)nc2c1 [Example 260, dihydrochloride]", "resultValue": 9.30}
{"compound": "N[C@H]1CCN([C@H](c2ccc3nnc(-c4ccc5cccc(C6(CO)CC6)c5n4)n3c2)C(F)(F)F)C1 [Example 114, dihydrochloride]", "resultValue": 9.52}
{"compound": "CO[C@H](C)COc1cc2nc(-c3nnc4ccc([C@H](N5CC[C@](C)(N)C5)C(F)(F)F)cn34)ccc2cc1F [Example 324, di-hydrochloride]", "resultValue": 9.68}
{"compound": "CCC1(N)CCN([C@H](c2ccc3nnc(-c4ccc5cccc(OC)c5n4)n3c2)C(F)(F)F)C1 (single isomer, unassigned; diastereomer 1) [Example 242, dihydrochloride]", "resultValue": 7.68}
{"compound": "CC(C)(O)c1cccc2ccc(-c3nnc4ccc([C@@H](N5CC[C@H](N)C5)C(F)(F)F)cn34)nc12", "resultValue": 8.96}

// data source = patent US8889704B2
